- Test system: Bacillus subtilis
- experimentDescription: Antimicrobial activity against Bacillus subtilis after 24 hrs by two-fold serial dilution method
- Assay type: functional
readoutType: MIC

1) O=C1c2cccc3c(Br)ccc(c23)C(=O)N1N(Cc1cn(Cc2cccc(F)c2)nn1)Cc1cn(Cc2cccc(F)c2)nn1	> 512 µg/mL
2) O=C1c2cccc3c(Br)ccc(c23)C(=O)N1N(Cc1cn(Cc2ccc([N+](=O)[O-])cc2)nn1)Cc1cn(Cc2ccc([N+](=O)[O-])cc2)nn1	256 µg/mL
3) CCCCCCCCn1cc(CN(Cc2cn(CCCCCCCC)nn2)N2C(=O)c3cccc4c(Br)ccc(c34)C2=O)nn1	> 512 µg/mL
4) CCCCn1cc(CN(Cc2cn(CCCC)nn2)N2C(=O)c3cccc4c(Br)ccc(c34)C2=O)nn1	> 512 µg/mL
5) CCCCCCn1cc(CN(Cc2cn(CCCCCC)nn2)N2C(=O)c3cccc4c(Br)ccc(c34)C2=O)nn1	> 512 µg/mL
6) CCn1cc(C(=O)O)c(=O)c2cc(F)c(N3CCNCC3)cc21	2 µg/mL
7) Cl.Cl.O=C1c2cccc3c(Br)ccc(c23)C(=O)N1N(Cc1cn(Cc2ccccc2F)nn1)Cc1cn(Cc2ccccc2F)nn1	> 512 µg/mL
8) O=C1c2cccc3c(Br)ccc(c23)C(=O)N1N(Cc1cn(Cc2ccccc2F)nn1)Cc1cn(Cc2ccccc2F)nn1	> 512 µg/mL
9) O=C1c2cccc3c(Br)ccc(c23)C(=O)N1N(Cc1cn(Cc2ccc(Cl)cc2Cl)nn1)Cc1cn(Cc2ccc(Cl)cc2Cl)nn1	> 512 µg/mL
10) CCCCn1cc(CN(Cc2cn(CCCC)nn2)N2C(=O)c3cccc4c(Br)ccc(c34)C2=O)nn1.Cl.Cl	512 µg/mL
11) O=C1c2cccc3c(Br)ccc(c23)C(=O)N1N(Cc1cn(Cc2cccc(Cl)c2)nn1)Cc1cn(Cc2cccc(Cl)c2)nn1	256 µg/mL
12) Cl.Cl.Cl.Cl.Cl.Cl.O=C1c2cccc3c(Br)ccc(c23)C(=O)N1N(Cc1cn(Cc2ccc(Cl)cc2Cl)nn1)Cc1cn(Cc2ccc(Cl)cc2Cl)nn1	> 512 µg/mL
13) O=C1c2cccc3c(Br)ccc(c23)C(=O)N1N(Cc1cn(Cc2ccccc2Cl)nn1)Cc1cn(Cc2ccccc2Cl)nn1	> 512 µg/mL
14) Cl.Cl.Cl.Cl.Cl.Cl.O=C1c2cccc3c(Br)ccc(c23)C(=O)N1N(Cc1cn(Cc2ccc(Cl)c(Cl)c2)nn1)Cc1cn(Cc2ccc(Cl)c(Cl)c2)nn1	512 µg/mL
15) Cl.Cl.O=C1c2cccc3c(Br)ccc(c23)C(=O)N1N(Cc1cn(Cc2ccc(F)cc2)nn1)Cc1cn(Cc2ccc(F)cc2)nn1	> 512 µg/mL
16) O=C1c2cccc3c(Br)ccc(c23)C(=O)N1N(Cc1cn(Cc2ccc(F)cc2F)nn1)Cc1cn(Cc2ccc(F)cc2F)nn1	256 µg/mL
17) O=C(N[C@H](CO)[C@H](O)c1ccc([N+](=O)[O-])cc1)C(Cl)Cl	32 µg/mL
18) Cl.Cl.Cl.Cl.O=C1c2cccc3c(Br)ccc(c23)C(=O)N1N(Cc1cn(Cc2ccccc2Cl)nn1)Cc1cn(Cc2ccccc2Cl)nn1	> 512 µg/mL

Where these numbers come from: ChEMBL document CHEMBL3098102
